experiment: logD determination (liquid-liquid distribution chromatography, octanol-coated column); settings: pH 3
property.measured: chromatographic logD
Form field (numeric): enter value without unit.

Item under review: CC(=O)CC(c1ccccc1)c1c(O)c2ccccc2oc1=O (racemic) [Warfarin (R/S), Warfarin] . Reported chromatographic logD?
3.25

====

assay: logD determination (liquid-liquid distribution chromatography, octanol-coated column); conditions: pH 5.9
property.measured: chromatographic logD
Form field (numeric): enter value without unit.

Item under review: CC(=O)CC(c1ccccc1)c1c(O)c2ccccc2oc1=O (racemic) [Warfarin (R/S), Warfarin] . Reported chromatographic logD?
2.25

====

assay: pKa determination by titration in aqueous solution (UV or pH monitored)
property.measured: pKa

Item under review: CC(=O)CC(c1ccccc1)c1c(O)c2ccccc2oc1=O (racemic) [Warfarin (R/S), Warfarin] . Reported pKa?
4.94
